# assayed-target: T1, recombinant HDM2 (amino acids 17-125 of SEQ ID NO:103) (human, UniProt Q00987 17-125)
# T1 construct: also called MDM2; not shown: thrombin cleavage site (pET28a vector)
# T1 sequence (Q00987 other isoform, or with tags, fused parts or gaps): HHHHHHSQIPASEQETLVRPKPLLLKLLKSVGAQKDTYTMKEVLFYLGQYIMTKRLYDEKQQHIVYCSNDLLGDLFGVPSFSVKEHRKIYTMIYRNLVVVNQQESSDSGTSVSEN
# assay-comment: streptavidin pull-down of biotinylated peptide with recombinant HDM2 and HDMX (1:1 mixture per paragraph 301), western blot
Bridges are numbered along the chain shown (N, C = ends). [ ]: non-standard residue; d: D form. The star is where a group is joined. Biotin = O=C1N[C@H]2[C@H](CS[C@H]2CCCCC(=O)*)N1; R8 = C=CCCCCCC[C@@](C)(N)C(=O)O; S5 = C=CCCC[C@](C)(N)C(=O)O
test-readout: binding result

# binder, test-readout, value
measured = [
    ("Biotin-LTF[R8]EYWAQP[S5]SAA-NH2 (staple 4-11; SMILES CC(C)C[C@H](NC(=O)CCCC[C@@H]1SC[C@@H]2NC(=O)N[C@@H]21)C(=O)N[C@H](C(=O)N[C@@H](Cc1ccccc1)C(=O)N[C@]1(C)CCCCCCC=CCCC[C@@](C)(C(=O)N[C@@H](CO)C(=O)N[C@@H](C)C(=O)N[C@@H](C)C(N)=O)NC(=O)[C@@H]2CCCN2C(=O)[C@H](CCC(N)=O)NC(=O)[C@H](C)NC(=O)[C@H](Cc2c[nH]c3ccccc23)NC(=O)[C@H](Cc2ccc(O)cc2)NC(=O)[C@H](CCC(=O)O)NC1=O)[C@@H](C)O) [ATSP-7041 B26P]", "binding result", "no binding"),
    ("Biotin-LTF[R8]EYWAQH[S5]SAA-NH2 (staple 4-11; SMILES CC(C)C[C@H](NC(=O)CCCC[C@@H]1SC[C@@H]2NC(=O)N[C@@H]21)C(=O)N[C@H](C(=O)N[C@@H](Cc1ccccc1)C(=O)N[C@]1(C)CCCCCCC=CCCC[C@@](C)(C(=O)N[C@@H](CO)C(=O)N[C@@H](C)C(=O)N[C@@H](C)C(N)=O)NC(=O)[C@H](Cc2c[nH]cn2)NC(=O)[C@H](CCC(N)=O)NC(=O)[C@H](C)NC(=O)[C@H](Cc2c[nH]c3ccccc23)NC(=O)[C@H](Cc2ccc(O)cc2)NC(=O)[C@H](CCC(=O)O)NC1=O)[C@@H](C)O) [ATSP-7041 B26H]", "binding result", "no binding"),
    ("Biotin-LTF[R8]EYWAQD[S5]SAA-NH2 (staple 4-11; SMILES CC(C)C[C@H](NC(=O)CCCC[C@@H]1SC[C@@H]2NC(=O)N[C@@H]21)C(=O)N[C@H](C(=O)N[C@@H](Cc1ccccc1)C(=O)N[C@]1(C)CCCCCCC=CCCC[C@@](C)(C(=O)N[C@@H](CO)C(=O)N[C@@H](C)C(=O)N[C@@H](C)C(N)=O)NC(=O)[C@H](CC(=O)O)NC(=O)[C@H](CCC(N)=O)NC(=O)[C@H](C)NC(=O)[C@H](Cc2c[nH]c3ccccc23)NC(=O)[C@H](Cc2ccc(O)cc2)NC(=O)[C@H](CCC(=O)O)NC1=O)[C@@H](C)O) [ATSP-7041 B26D]", "binding result", "no binding"),
]

Data origin, for the record: patent US20230192789A1
